Protein target, amino acids: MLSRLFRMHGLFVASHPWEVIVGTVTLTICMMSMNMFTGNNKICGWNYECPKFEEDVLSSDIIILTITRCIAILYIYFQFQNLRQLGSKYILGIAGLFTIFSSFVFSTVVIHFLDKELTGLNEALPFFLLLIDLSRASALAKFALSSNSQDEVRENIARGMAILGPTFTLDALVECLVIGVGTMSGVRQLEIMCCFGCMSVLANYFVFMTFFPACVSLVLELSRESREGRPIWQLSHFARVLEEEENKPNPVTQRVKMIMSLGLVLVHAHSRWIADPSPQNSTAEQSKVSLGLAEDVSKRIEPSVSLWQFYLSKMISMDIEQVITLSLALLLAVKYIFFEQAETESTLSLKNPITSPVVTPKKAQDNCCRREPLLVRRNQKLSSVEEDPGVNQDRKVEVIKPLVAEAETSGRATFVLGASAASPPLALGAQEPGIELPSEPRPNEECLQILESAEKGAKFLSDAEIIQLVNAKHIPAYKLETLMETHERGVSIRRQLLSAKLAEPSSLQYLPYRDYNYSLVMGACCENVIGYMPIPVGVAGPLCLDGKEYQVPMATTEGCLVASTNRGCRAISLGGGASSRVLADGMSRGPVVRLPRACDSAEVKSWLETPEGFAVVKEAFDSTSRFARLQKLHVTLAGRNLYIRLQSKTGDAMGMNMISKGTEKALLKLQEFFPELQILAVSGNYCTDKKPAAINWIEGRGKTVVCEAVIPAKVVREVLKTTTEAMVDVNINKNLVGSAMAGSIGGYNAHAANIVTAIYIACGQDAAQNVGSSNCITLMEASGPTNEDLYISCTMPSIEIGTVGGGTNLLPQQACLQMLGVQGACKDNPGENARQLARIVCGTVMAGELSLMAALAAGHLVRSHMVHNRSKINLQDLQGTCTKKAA
pIC50: −log10 of the molar value. Structures can show the parent of a compound that is named as a salt.
Metric: pIC50

Compound: CCC(C)C(=O)OC1CCC(=NOCc2c(C)noc2C)C2=CC(=O)C(C)C(CCC(O)CC(O)CC(=O)O)C21 (stereo not shown) [Na salt of Compound of Preparation 11]
pIC50: 7.76
//
Compound: CCC(C)C(=O)OC1CCC(=NOCc2ccccc2)C2=CC(=O)C(C)C(CCC(=O)CC(O)CC(=O)O)C21 (stereo not shown)
pIC50: 7.79
//
Compound: CCC(C)C(=O)OC1CCC(=NOCc2cnoc2)C2=CC(=O)C(C)C(CCC(O)CC(O)CC(=O)O)C21 (stereo not shown) [Na salt of Compound of Preparation 9]
pIC50: 7.64
//
Compound: CCC(C)C(=O)OC1CCC(=NOCc2ccccc2)C2=CC(=O)C(C)C(CCC(O)CC(O)CC(=O)O)C21 (stereo not shown) [Na salt of Compound of Preparation 1]
pIC50: 7.73
